Molecular target: T1, recombinant rat MASP1 active protease (amino acids 302-704, C-terminal His Tag) (rat, UniProt Q8CHN8 302-704)
T1 sequence: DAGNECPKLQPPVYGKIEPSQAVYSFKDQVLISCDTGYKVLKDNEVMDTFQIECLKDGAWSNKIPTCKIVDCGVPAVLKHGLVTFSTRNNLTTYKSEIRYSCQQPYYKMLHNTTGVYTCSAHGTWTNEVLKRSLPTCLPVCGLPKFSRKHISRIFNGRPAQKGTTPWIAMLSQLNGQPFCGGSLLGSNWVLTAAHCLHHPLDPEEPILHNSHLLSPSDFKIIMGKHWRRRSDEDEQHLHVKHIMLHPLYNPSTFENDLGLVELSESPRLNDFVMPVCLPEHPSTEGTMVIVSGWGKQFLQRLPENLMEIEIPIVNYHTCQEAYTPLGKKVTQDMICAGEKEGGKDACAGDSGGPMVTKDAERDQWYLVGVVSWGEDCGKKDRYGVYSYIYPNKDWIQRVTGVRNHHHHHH
Assay: cell-based or functional assay
Numbered stars: 1 amine (or outer) side, 2 acyl side, 3 side chain; on linkers, the order of the positions; unused ones are H or OH. Bridge positions count the residues as written; N and C are the ends. Square brackets hold non-standard residues; d marks the D form. Ends that are not written are not given here. X10 = (2R)‑2‑amino‑3‑(trifluoromethylsulfanyl)propanoic acid, O=C([C@H](CSC(F)(F)F)N[*:1])[*:2]; Oic = O=C(O)[C@@H]1C[C@@H]2CCCC[C@@H]2N1; PEG6 = NCCOCCOCCOCCOCCOCCOCCC(=O)O; Pen = CC(C)(S)[C@H](N)C(=O)O; Orn = NCCC[C@H](N)C(=O)O; Sar = CNCC(=O)O
Recorded rat MASP1 IC50 for the following binders

>  <binder>
[Orn]ICSRS[X10]PPI[Pen]IPD-OH (disulfide 3-11; N-terminus assumed; SMILES CC[C@H](C)[C@H](NC(=O)[C@@H](N)CCCN)C(=O)N[C@H]1CSSC(C)(C)[C@@H](C(=O)N[C@H](C(=O)N2CCC[C@H]2C(=O)N[C@@H](CC(=O)O)C(=O)O)[C@@H](C)CC)NC(=O)[C@H]([C@@H](C)CC)NC(=O)[C@@H]2CCCN2C(=O)[C@@H]2CCCN2C(=O)[C@H](CSC(F)(F)F)NC(=O)[C@H](CO)NC(=O)[C@H](CCCNC(=N)N)NC(=O)[C@H](CO)NC1=O) [Example 529: (Orn)-IC+SRS-((2R)-2-amino-3-(trifluoromethylsulfanyl)propanoic acid)-PPI-(Pen)+IPD-OH]

>  <rat MASP1 IC50>
730 nM

$$$$

Which measured rat MASP1 IC50 value corresponds to [Sar]ICSRSLP[Oic]I[Pen]IP[PEG6]-NH2 (disulfide 3-11; N-terminus assumed; SMILES CC[C@H](C)[C@H](NC(=O)CNC)C(=O)N[C@H]1CSSC(C)(C)[C@@H](C(=O)N[C@H](C(=O)N2CCC[C@H]2C(=O)NCCOCCOCCOCCOCCOCCOCCC(N)=O)[C@@H](C)CC)NC(=O)[C@H]([C@@H](C)CC)NC(=O)[C@@H]2C[C@@H]3CCCC[C@@H]3N2C(=O)[C@@H]2CCCN2C(=O)[C@H](CC(C)C)NC(=O)[C@H](CO)NC(=O)[C@H](CCCNC(=N)N)NC(=O)[C@H](CO)NC1=O) [Example 140: ((N-Me)G)-IC+SRSLP-(Oic)-I-(Pen)+IP-(PEG5(22 atoms))-NH2] ?
100 nM
